Exercise: state measured IC50 for each of the compounds provided.
- STUDY TARGET: COX-1 (Ovis aries, UniProt P05979)
- Sequence (P05979 25-600): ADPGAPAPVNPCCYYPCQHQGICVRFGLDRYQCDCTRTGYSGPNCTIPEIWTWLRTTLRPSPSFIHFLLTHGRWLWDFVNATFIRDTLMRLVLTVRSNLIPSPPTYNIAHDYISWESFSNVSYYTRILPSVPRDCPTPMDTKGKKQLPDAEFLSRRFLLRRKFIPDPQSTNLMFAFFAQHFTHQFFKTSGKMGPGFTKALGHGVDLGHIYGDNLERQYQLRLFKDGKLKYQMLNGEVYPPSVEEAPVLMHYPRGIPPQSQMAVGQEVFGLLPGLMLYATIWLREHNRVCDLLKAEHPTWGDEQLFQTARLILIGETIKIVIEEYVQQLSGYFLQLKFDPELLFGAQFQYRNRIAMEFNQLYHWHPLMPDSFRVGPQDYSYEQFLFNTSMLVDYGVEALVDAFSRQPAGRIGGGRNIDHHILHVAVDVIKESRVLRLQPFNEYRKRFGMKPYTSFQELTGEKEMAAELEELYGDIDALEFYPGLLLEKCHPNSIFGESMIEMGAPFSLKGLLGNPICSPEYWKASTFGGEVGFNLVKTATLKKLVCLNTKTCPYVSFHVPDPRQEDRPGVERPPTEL
Response body: numeric value in µM, unit text excluded.

Challenge: What value of IC50 has been reported for the following compound? COc1ccc(Nc2n[nH]c(N=Cc3c[nH]c4ccccc34)c2C(=O)Nc2ccccc2)cc1 [14c]
Response given: 24

Challenge: Another compound to check: Cc1ccc(NC(=O)c2c(Nc3ccccc3)n[nH]c2N=C2C(=O)N(C)c3ccccc32)cc1 [12b]
Response given: 44.9

Challenge: Another compound to check: O=C(Nc1ccccc1)c1c(Nc2ccccc2)n[nH]c1N=Cc1c[nH]c2ccccc12 [14a]
Response given: 17.1

Challenge: Another compound to check: CCN1C(=O)/C(=N\c2[nH]nc(Nc3ccccc3)c2C(=O)Nc2ccc(C)cc2)c2ccccc21 [12f]
Response given: 43.2

Challenge: Another compound to check: COc1ccc(Nc2n[nH]c(N=C3C(=O)N(C)c4ccccc43)c2C(=O)Nc2ccccc2)cc1 [12c]
Response given: 38.8

Challenge: Another compound to check: CCN1C(=O)C(=Nc2[nH]nc(Nc3ccccc3)c2C(=O)Nc2ccccc2)c2ccccc21 [12e]
Response given: 47.8

Challenge: Another compound to check: CCN1C(=O)C(=Nc2[nH]nc(Nc3ccc(OC)cc3)c2C(=O)Nc2ccccc2)c2ccccc21 [12g]
Response given: 37.4

Challenge: Another compound to check: COc1ccc(Nc2n[nH]c(N=C3C(=O)N(C)c4ccccc43)c2C(=O)Nc2ccc(C)cc2)cc1 [12d]
Response given: 38

Challenge: Another compound to check: Cc1ccc(NC(=O)c2c(Nc3ccccc3)n[nH]c2N=Cc2c[nH]c3ccccc23)cc1 [14b]
Response given: 12.5

Challenge: Another compound to check: CCN1C(=O)C(=Nc2[nH]nc(Nc3ccc(OC)cc3)c2C(=O)Nc2ccc(C)cc2)c2ccccc21 [12h]
Response given: 37.3

Challenge: Another compound to check: COc1ccc(Nc2n[nH]c(N=Cc3c[nH]c4ccccc34)c2C(=O)Nc2ccc(C)cc2)cc1 [14d]
Response given: 22.9

Challenge: Another compound to check: CN1C(=O)C(=Nc2[nH]nc(Nc3ccccc3)c2C(=O)Nc2ccccc2)c2ccccc21 [12a]
Response given: 49.8
